- TARGET_OR_SYSTEM: Tyrosine-protein kinase Mer (Homo sapiens, UniProt Q12866)
- Sequence (Q12866 whole entry): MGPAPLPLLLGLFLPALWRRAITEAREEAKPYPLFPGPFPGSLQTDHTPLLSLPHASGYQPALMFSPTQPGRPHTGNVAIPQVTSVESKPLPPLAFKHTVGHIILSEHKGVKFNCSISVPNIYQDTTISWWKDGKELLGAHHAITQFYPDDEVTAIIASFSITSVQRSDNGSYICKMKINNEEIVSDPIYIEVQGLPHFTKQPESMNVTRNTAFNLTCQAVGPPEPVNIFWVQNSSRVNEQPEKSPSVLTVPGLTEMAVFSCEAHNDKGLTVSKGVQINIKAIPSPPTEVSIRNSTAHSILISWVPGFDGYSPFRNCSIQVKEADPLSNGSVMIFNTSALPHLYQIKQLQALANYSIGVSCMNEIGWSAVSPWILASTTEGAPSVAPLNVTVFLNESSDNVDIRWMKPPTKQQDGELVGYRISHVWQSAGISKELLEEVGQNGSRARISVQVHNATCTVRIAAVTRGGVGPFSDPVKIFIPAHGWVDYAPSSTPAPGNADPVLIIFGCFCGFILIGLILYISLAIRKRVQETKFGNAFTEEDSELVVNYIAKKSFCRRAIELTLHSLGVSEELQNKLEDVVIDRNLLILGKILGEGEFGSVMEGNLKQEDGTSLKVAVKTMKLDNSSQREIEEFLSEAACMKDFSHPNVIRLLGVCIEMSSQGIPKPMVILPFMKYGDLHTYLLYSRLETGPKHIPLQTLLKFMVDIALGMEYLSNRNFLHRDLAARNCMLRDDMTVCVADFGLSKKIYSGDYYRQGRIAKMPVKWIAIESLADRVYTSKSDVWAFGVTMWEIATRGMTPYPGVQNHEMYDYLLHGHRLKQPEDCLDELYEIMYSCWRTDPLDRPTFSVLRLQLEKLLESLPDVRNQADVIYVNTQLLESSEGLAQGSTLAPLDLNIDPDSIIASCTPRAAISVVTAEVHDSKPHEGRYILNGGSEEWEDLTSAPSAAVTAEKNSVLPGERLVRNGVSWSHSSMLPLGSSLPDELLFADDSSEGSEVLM
MEASURED_ENDPOINT: Kd (nM)

- O=C(NCCCN1CCOC1=O)c1cnc(NCc2cc(Cl)ccc2Cl)nc1NC1CCCC1: 570

----------
Catalogue of IC50 readings, one per entry.
- TARGET_OR_SYSTEM: Tyrosine-protein kinase receptor UFO (Homo sapiens)
- Sequence (P30530 whole entry, the tested form may be a part): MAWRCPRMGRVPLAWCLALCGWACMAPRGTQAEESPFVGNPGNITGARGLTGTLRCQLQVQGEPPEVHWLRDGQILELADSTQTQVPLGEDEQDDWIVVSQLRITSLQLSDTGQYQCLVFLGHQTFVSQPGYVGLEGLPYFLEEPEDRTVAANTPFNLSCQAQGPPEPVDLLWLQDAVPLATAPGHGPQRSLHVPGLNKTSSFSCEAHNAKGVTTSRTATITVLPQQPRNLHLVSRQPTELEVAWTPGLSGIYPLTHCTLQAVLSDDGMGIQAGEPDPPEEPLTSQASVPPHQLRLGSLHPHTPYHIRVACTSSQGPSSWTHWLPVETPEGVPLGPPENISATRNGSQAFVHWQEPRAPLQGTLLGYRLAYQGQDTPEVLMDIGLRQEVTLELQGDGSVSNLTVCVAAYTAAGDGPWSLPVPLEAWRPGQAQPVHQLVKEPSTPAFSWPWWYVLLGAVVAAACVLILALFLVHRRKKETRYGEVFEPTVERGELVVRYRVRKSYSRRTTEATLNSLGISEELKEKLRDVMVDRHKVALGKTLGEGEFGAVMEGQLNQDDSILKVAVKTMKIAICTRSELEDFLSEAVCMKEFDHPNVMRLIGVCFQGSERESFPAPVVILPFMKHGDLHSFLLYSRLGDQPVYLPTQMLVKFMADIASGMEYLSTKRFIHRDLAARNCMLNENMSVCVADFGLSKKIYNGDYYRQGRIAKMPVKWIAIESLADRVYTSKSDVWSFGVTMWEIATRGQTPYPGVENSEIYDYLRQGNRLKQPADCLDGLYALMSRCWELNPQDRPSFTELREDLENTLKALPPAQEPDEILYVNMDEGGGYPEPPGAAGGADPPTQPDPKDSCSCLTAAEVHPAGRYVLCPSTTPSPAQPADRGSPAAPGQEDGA
- MEASUREMENT_NOTES: Inhibition of tracer K5 binding to NanoLuc-fused AXL (unknown origin) expressed in HEK293T cells measured after 2 hrs by NanoBRET assay
MEASURED_ENDPOINT: IC50

• Cc1cc(Br)c(CNc2ncc(C(=O)NCCCN3CCOC3=O)c(NC3CCCCC3)n2)cc1Br = > 10 µM
• O=C(NCCCN1CCCC1=O)c1cnc(NCc2ccc(Cl)cc2Cl)nc1NC1CCCC1 = > 10 µM
• CCN(Cc1ccc(Cl)cc1)c1ncc(C(=O)NCCCN2CCCC2=O)c(NC2CCCC2)n1 = > 10 µM

----------
- TARGET_OR_SYSTEM: UniProt P00519
- Sequence (P00519 whole entry): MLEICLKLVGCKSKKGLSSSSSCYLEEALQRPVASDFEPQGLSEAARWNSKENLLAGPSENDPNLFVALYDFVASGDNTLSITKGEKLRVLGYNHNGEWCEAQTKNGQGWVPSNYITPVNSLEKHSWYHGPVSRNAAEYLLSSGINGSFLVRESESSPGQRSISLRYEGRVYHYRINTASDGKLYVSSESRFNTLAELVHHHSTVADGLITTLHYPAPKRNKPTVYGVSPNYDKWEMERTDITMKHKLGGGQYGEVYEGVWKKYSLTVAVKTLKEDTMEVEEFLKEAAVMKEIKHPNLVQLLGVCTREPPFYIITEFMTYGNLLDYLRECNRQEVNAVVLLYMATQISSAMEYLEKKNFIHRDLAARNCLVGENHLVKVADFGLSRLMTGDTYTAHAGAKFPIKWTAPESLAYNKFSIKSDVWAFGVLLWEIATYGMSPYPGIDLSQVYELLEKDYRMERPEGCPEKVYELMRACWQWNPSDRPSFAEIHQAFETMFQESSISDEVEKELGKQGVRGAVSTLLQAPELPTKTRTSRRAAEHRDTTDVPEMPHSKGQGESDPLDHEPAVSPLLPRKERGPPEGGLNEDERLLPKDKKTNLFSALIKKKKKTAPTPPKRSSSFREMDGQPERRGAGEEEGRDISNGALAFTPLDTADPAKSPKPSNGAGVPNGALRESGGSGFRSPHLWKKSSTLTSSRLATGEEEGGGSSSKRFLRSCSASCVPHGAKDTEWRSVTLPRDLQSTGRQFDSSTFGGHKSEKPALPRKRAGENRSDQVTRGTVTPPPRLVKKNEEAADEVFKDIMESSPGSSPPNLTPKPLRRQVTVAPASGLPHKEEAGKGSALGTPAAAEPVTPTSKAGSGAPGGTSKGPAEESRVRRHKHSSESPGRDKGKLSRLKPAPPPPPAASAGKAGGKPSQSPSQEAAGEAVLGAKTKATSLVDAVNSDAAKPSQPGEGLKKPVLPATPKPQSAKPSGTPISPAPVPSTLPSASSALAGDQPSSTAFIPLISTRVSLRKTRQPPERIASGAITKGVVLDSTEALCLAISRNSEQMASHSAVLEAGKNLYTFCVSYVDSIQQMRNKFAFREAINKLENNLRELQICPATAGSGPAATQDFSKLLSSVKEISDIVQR
Tick Y if deltaTm is 6 K or greater. Tick N if deltaTm is less than 6 K.

* O=C(NCCCN1CCOC1=O)c1cnc(NCc2cc(Cl)ccc2Cl)nc1NC1CCCC1 | Y
* Cc1ccc(CNc2ncc(C(=O)NCCCN3CCOC3=O)c(NC3CCCC3)n2)c(Br)c1 | N
* COc1ccc(OC)c(CNc2ncc(C(=O)NCCCN3CCCC3=O)c(NC3CCCC3)n2)c1 | N
* O=C(NCCCN1CCCC1=O)c1cnc(NCc2cc(Cl)ccc2Cl)nc1Nc1ccccc1 | N
* Cc1cc(Br)c(CNc2ncc(C(=O)NCCCN3CCOC3=O)c(NC3CCCCC3)n2)cc1Br | Y
* O=C(NCCCN1CCCC1=O)c1cnc(NCc2ccccc2)nc1NC1CCCC1 | N
* O=C(NCCCN1CCCC1=O)c1cnc(NCc2ccc(Cl)cc2Cl)nc1NC1CCCC1 | N
* O=C(NCCCN1CCCC1=O)c1cnc(NCc2ccccc2Br)nc1NC1CCCC1 | Y

----------
- TARGET_OR_SYSTEM: Casein kinase I isoform epsilon (Homo sapiens, UniProt P49674)
- MEASUREMENT_NOTES: Binding affinity to human CSNK1E by KINOMEscan scanMAX assay
- Sequence (P49674 whole entry, canonical isoform): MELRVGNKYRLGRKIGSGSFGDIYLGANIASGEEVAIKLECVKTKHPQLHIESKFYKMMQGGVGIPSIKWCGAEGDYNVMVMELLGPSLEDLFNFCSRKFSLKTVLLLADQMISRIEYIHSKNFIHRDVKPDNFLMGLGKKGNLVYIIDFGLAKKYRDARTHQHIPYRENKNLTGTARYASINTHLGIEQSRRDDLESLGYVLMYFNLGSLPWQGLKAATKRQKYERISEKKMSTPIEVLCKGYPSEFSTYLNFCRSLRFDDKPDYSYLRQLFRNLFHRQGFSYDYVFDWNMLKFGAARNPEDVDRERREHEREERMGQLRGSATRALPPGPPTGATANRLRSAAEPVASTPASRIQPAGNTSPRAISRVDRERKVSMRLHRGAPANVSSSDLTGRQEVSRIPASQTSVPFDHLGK
MEASURED_ENDPOINT: Kd (µM)

• O=C(NCCCN1CCOC1=O)c1cnc(NCc2cc(Cl)ccc2Cl)nc1NC1CCCC1 = 0.77

----------
- TARGET_OR_SYSTEM: Tyrosine-protein kinase receptor TYRO3 (Homo sapiens, UniProt Q06418)
- Sequence (Q06418 whole entry, the tested form may be a part): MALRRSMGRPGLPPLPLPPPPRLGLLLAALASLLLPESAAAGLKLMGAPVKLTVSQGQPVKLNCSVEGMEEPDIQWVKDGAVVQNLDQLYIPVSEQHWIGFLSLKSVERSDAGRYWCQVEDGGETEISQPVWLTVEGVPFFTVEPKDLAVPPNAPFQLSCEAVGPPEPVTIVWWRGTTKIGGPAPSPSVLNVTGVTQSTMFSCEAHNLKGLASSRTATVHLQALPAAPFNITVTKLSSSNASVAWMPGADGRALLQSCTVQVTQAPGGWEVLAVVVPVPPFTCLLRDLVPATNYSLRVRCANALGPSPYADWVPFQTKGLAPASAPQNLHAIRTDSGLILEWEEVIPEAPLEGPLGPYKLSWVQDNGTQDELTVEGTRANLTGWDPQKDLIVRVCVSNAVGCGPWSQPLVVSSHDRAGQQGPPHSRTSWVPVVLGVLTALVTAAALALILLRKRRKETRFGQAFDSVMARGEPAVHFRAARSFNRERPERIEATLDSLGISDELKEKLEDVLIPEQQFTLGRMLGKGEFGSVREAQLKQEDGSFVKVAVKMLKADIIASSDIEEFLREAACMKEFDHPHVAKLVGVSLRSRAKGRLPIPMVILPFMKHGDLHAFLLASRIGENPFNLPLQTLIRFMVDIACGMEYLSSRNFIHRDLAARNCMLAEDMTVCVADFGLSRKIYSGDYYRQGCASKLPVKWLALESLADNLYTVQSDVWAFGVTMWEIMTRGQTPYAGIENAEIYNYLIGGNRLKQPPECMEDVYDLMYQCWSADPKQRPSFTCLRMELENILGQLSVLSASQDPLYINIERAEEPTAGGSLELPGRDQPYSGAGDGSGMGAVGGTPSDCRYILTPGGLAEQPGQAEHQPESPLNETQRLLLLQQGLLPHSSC
- MEASUREMENT_NOTES: Inhibition of tracer K5 binding to NanoLuc-fused TYRO3 (unknown origin) expressed in HEK293T cells measured after 2 hrs by NanoBRET assay
MEASURED_ENDPOINT: IC50

• CCN(Cc1ccccc1)c1ncc(C(=O)NCCCN2CCCC2=O)c(NC2CCCC2)n1 = > 10 µM
• O=C(NCCCN1CCCC1=O)c1cnc(NCc2ccc(Cl)cc2Cl)nc1NC1CCCC1 = > 10 µM
• CCN(Cc1ccc(Cl)cc1)c1ncc(C(=O)NCCCN2CCCC2=O)c(NC2CCCC2)n1 = > 10 µM

----------
- TARGET_OR_SYSTEM: Casein kinase I isoform epsilon (Homo sapiens, UniProt P49674)
- MEASUREMENT_NOTES: Binding affinity to CSNK1E (unknown origin) assessed as change in melting temperature by SYPRO orange dye based DSF assay
- Sequence (P49674 whole entry, looked up, canonical isoform): as the sequence (P49674 whole entry, canonical isoform) above
Examples of molecules with documented log10(deltaTm) follow.
MEASURED_ENDPOINT: log10(deltaTm) (log10 of the value in K)

- O=C(NCCCN1CCCC1=O)c1cnc(NCc2ccc(Cl)cc2Cl)nc1NC1CCCC1: 0.32
- O=C(NCCCN1CCCC1=O)c1cnc(NCc2ccc(Br)cc2)nc1NC1CCCC1: 0.34
- Cc1ccc(CNc2ncc(C(=O)NCCCN3CCOC3=O)c(NC3CCCC3)n2)c(Br)c1: -1.00
- O=C(NCCCN1CCCC1=O)c1cnc(NCc2cc(Cl)ccc2Cl)nc1NC1CCCCC1: 0.70
- O=C(NCCCN1CCCC1=O)c1cnc(NCc2cc(Cl)ccc2Cl)nc1NC1CCCC1: 0.68
